# credit: patent US5663207A

Target: estrogen receptor (Rattus norvegicus, UniProt P06211)
Construct: ovariectomized rat uterine cytosolic estrogen receptor preparation; from tissue; host or cells: uterine cytosol of ovariectomized Sprague-Dawley rats (immature rats from Sasco are named as uterus source, mature ovariectomized rats)
Sequence (P06211 1-600): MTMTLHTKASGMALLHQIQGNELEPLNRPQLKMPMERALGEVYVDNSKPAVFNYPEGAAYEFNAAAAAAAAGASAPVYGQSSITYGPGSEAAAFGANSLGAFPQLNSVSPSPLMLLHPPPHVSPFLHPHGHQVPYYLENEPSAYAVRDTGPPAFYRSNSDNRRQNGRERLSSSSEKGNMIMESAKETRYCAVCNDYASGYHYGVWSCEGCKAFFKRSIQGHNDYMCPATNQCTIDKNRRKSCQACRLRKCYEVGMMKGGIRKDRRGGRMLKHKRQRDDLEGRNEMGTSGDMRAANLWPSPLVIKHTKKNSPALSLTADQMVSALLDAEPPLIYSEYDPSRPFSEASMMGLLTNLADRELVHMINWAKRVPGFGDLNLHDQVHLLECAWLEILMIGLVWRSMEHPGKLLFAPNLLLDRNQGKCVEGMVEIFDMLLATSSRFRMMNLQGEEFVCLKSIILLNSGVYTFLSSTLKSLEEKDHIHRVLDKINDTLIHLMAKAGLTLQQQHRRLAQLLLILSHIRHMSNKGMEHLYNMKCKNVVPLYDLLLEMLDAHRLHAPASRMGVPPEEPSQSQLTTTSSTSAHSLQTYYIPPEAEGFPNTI
Assay: Receptor binding assay: displacement of [3H]-estradiol from rat uterine cytosol
Set-up: species or system rat (Sprague-Dawley)
Settings: relative to estradiol = 100%; average of duplicate determinations minus nonspecific binding
From the text: The biological evaluation of the test compounds consisted of the in vitro rat cytosolic estradiol receptor binding assay, the in vivo immature mouse uterotrophic (estrogenic) and antiuterotrophic (antiestrogenic) assays, and the in vitro suppression of the proliferation of the ER positive MCF-7 human breast cancer cell line. […] ^a Determined by competitive radiometric binding assay with rat […]
RBA (relative binding affinity) vs 0.07%: less than gives Satisfied; not less than gives Not satisfied.

Solved entries (count: 6):
INSERT INTO results (molecule, class) VALUES
  ('CC(=O)Oc1ccc(C2(c3ccc(OC(C)=O)cc3)C(Cl)(Cl)C23CCCCC3)cc1 [Compound 31]', 'Satisfied'),
  ('COc1ccc(C2(c3ccc(O)cc3)CC2(Cl)Cl)cc1 (centres unmarked) [Compound 24]', 'Satisfied'),
  ('Oc1ccc(C2(c3ccc(O)cc3)C(Cl)(Cl)C23CCCCC3)cc1 [Compound 30]', 'Not satisfied'),
  ('CC(=O)Oc1ccc([C@H]2[C@H](c3ccccc3)C2(Cl)Cl)cc1 (relative stereo) [Compound 18]', 'Not satisfied'),
  ('COc1ccc([C@@H]2[C@H](c3ccc(OC)cc3)C2(Cl)Cl)cc1 [Compound 14]', 'Satisfied'),
  ('CC(=O)Oc1ccc(C2(c3ccc(OC(C)=O)cc3)C(c3ccccc3)C2(Cl)Cl)cc1 (centres unmarked) [Compound 37]', 'Not satisfied');

Now turn to the next molecule.
Task item: Strictly below 0.07%: is that where RBA (relative binding affinity) of Oc1ccc(C2(c3ccc(O)cc3)CC2(Cl)Cl)cc1 [Compound 25] sits?
Reply: Satisfied

###

System: MCF-7 human breast cancer cells
Assay: In vitro MCF-7 human breast cancer cell growth inhibition assay
Assay type: cell-based
Details: 10^-6 M
reported-endpoint: effect on MCF-7 cell growth (in words)

Here are 5 compounds together with their reported answers.
INSERT INTO measurements (compound, test_system, result) VALUES
  ('COc1ccc(C2(c3ccc(OC)cc3)CC2(Cl)Cl)cc1', 'MCF-7 human breast cancer cells', 'inhibited cell growth'),
  ('CC(=O)Oc1ccc([C@H]2[C@H](c3ccccc3)C2(Cl)Cl)cc1 (relative stereo)', 'MCF-7 human breast cancer cells', 'did not'),
  ('COc1ccc([C@@H]2[C@H](c3ccc(OC)cc3)C2(Cl)Cl)cc1', 'MCF-7 human breast cancer cells', 'inhibited cell growth'),
  ('CC(=O)Oc1ccc([C@H]2[C@@H](c3ccccc3)C2(Cl)Cl)cc1 (relative stereo)', 'MCF-7 human breast cancer cells', 'inhibited cell growth'),
  ('COc1ccc([C@H]2[C@@H](c3ccccc3)C2(Cl)Cl)cc1 (relative stereo)', 'MCF-7 human breast cancer cells', 'inhibited cell growth');

Task item: Recall and state the measured effect on MCF-7 cell growth (in words) for COc1ccc([C@H]2[C@H](c3ccccc3)C2(Cl)Cl)cc1 (relative stereo) .
Reply: did not
